# testTarget: T1, human GPRC5D (human, UniProt Q9NZD1 1-345)
# T1 construct: whole, on cells; also called hGPRC5D; G-protein coupled receptor family C group 5 member D
# T1 sequence (Q9NZD1 whole entry): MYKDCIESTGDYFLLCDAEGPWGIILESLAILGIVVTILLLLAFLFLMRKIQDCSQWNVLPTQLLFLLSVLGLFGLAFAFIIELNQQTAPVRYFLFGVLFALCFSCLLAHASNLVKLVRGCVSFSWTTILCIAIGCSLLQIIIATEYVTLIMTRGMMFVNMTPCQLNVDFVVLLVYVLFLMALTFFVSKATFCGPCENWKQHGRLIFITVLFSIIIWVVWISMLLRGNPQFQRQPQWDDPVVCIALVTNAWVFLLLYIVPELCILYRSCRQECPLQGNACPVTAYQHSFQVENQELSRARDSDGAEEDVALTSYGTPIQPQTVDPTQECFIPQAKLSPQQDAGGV
# assayProcedure: FACS, HEK293T-hGPRC5D cells
readoutKind: % Positive (%)
Give the value, in units of %, as a plain number.

- binder: "20C4E1 (antibody, V domains shown, Mouse monoclonal antibody from hybridoma subclone) VH: EVRLVESGGALVRPGGSLKLSCAASGFTFSDYGMHWVRQAPEKGLEWIAFISSVSFTIYYADTVKGRFTISRDNAKNTLFLQMTSLRSEDTALYYCTRLGPHWYFDVWGTGTTVTVSS VL: DVVLTQTPLSLPVSLGDQASISCRSSQSLVYSNGNTYLHWFLQKPGQSPQLLIYKVSNRFSGVPDRFSGSGSGTDFTLKISRVEAEDLGVYFCSQSTPVPTFGGGTKLEIK"
  % Positive / %: 99.9
- binder: "96C9E7 (antibody, V domains shown, Mouse monoclonal antibody from hybridoma subclone) VH: EVQLQQSGPELVKPGASVKMSCKASGYTFTYYILHWVKQKPGQGLEWIGYFNPYNDGNKFNERFRGKATLTSDKSSSTAYMELNSLTSEDSAVYFCARGGVRRYFDVWGAGTTVTVSS VL: DIQMTQSPSSLSASLGERVSLTCRASQDIGSNLNWLQQEPDGTIKRLISATFSLDSGVPKRFSGSRSGSDYSLTISSLESEDFVNYYCLQYASFPYTFGGGTKLEIK"
  % Positive / %: 58.8
- binder: "36A3G8 (antibody, V domains shown, Mouse monoclonal antibody from hybridoma subclone) VH: QVQLQQSGAELARPGASVKMSCKASGYTFTTYTMHWIKQRPGQDLEWIGFINPSSGYTKYNQNFKDKATLTADKSSTTAYMQLNSLTSEDSAVYYCASPYGNIYFDVWGTGTTVTVSS VL: DIVMTQSQKFMSTAVGDRVSITCKASQNVGTAVAWYQQKPGQSPKLLIYSASNRYTGVPDRFTGSGSGTDFTLTISNMQSEDLADYFCQQYSSYPLTFGAGTKLELK"
  % Positive / %: 99.3

Here's the next entry for you.
Query: Form field: reported % Positive of 116G1G4 (antibody, V domains shown, Mouse monoclonal antibody from hybridoma subclone) VH: EVQLQQSGPELVKPGASVKMSCKASGYTFTYYIMHWVKQEPGQGLQWIGYINPYNDGAYYSARFKGKATLTSDKSSSTAYMDLTSLTSEDSAVYYCARGGVRRYFDVWGAGTTVTVSS VL: DIQMTQSPSSLSASLGERVILTCRASQDIGSNLIWLQQKPDGTIKRLIYATFNLDSGVSKRFSGSRSGSDYSLTISSLDSEDFVDYYCLQYASSPYTFGGGTKLEIK
Response: 94.4
